- ASSAYED SYSTEM: Tyrosine-protein kinase Mer (Homo sapiens) (UniProt Q12866);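 further: values are mean inhibition of human MER kinase, from the GSK PKIS profiling panel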
- Sequence (whole entry): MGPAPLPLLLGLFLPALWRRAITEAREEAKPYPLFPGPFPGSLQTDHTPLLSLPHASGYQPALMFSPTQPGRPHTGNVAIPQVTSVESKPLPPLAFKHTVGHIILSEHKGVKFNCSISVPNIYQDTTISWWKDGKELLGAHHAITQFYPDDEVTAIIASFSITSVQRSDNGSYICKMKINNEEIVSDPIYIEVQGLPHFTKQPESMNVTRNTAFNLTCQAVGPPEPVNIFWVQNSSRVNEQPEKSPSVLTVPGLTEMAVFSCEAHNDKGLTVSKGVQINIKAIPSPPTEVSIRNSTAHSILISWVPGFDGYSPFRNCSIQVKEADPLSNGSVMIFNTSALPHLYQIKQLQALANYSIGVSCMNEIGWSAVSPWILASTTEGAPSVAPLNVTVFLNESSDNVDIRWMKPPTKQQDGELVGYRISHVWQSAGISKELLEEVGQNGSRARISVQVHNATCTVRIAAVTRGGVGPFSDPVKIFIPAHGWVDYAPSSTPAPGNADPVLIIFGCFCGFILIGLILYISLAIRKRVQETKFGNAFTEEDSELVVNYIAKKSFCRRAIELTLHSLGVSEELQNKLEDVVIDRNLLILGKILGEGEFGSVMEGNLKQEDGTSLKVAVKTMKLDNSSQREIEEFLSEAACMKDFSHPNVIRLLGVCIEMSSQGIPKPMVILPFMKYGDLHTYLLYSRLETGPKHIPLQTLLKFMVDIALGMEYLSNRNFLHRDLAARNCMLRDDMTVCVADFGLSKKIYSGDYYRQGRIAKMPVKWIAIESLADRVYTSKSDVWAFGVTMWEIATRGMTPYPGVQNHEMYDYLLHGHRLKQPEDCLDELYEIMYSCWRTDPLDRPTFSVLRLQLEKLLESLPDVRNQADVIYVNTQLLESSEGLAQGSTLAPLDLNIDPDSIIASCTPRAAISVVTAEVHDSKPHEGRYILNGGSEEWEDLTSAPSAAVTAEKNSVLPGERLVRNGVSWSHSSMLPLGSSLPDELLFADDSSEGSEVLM
- TEST SETTINGS: at 1 µM
I'd appreciate it if you could supply inhibition values for the items below.
Numbers only, in %.

Take a look at these entries with their results.
# SMILES CODE, ASSAYED SYSTEM, inhibition [%]
data = [
    ("Fc1ccc(-c2ncn(C3CCNCC3)c2-c2ccnc(Oc3ccccc3)n2)cc1", "Tyrosine-protein kinase Mer (Homo sapiens) (UniProt Q12866)", 6.11),
    ("COc1cc2c(cc1Nc1nc(Nc3ccsc3C(N)=O)c3cc[nH]c3n1)N(C(=O)CN(C)C)CCC2", "Tyrosine-protein kinase Mer (Homo sapiens) (UniProt Q12866)", 6.9),
    ("COc1cc(C=NNc2ncnc3c2cnn3Cc2ccccc2)ccc1O", "Tyrosine-protein kinase Mer (Homo sapiens) (UniProt Q12866)", 6.34),
]

# return inhibition for each item in the list
1. CCn1c(-c2nonc2N)nc2c(C#CC(C)(C)O)ncc(OCC3CCNCC3)c21
2. NS(=O)(=O)c1ccc(N/C=C2\C(=O)Nc3ccc4ncsc4c32)cc1
3. CCn1c(-c2nonc2N)nc2c(C#CCN)ncc(OCCCN)c21

**Result**
[1.7, 7.72, 0.01]
